// data source = paper PMC10397247

Items are presented alongside their recorded interaction score.
Molecular target: T1, 4H1352-AA
T1 chain: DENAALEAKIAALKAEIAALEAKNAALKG
Test: two-hybrid library CCmax;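 further: natural log of median RNA to DNA barcode read ratio; higher means stronger binding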
Conditions: mean of both orientations

binder | interaction score
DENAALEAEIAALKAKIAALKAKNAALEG [4H1135-AA] | 0.703
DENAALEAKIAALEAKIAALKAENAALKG [4H1324-AA] | 0.674
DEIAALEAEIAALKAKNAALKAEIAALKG [4H122-AA] | -1.3
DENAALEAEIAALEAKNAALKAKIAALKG [4H1086-AA] | -0.965
